target: FR (folate receptor) on KB cells (Homo sapiens)
Sequence (P15328 25-257): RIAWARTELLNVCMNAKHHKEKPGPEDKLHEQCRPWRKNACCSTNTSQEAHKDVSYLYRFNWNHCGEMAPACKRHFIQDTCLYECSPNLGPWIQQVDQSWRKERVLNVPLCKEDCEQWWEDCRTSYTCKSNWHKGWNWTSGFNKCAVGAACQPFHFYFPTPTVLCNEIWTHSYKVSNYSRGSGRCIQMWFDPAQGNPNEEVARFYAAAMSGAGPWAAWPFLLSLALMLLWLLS
Assay Endpoint: IC50
For clarity, give the value followed by its unit.

Write down the reported IC50 of Nc1nc2ncc(CNc3ccc(C(=O)N[C@@H](CCC(=O)NCCOCCOCCNC(=O)CN4CCN(CC(=O)O)CCN(CC(=O)O)CC4)C(=O)O)cc3)nc2c(=O)[nH]1 [folate-NOTA] , test system: FR (folate receptor) on KB cells (Homo sapiens).
18.7 nM
